- MEASUREMENT_TARGET: Proto-oncogene tyrosine-protein kinase ROS (Homo sapiens) (UniProt P08922)
- Sequence (P08922 whole entry): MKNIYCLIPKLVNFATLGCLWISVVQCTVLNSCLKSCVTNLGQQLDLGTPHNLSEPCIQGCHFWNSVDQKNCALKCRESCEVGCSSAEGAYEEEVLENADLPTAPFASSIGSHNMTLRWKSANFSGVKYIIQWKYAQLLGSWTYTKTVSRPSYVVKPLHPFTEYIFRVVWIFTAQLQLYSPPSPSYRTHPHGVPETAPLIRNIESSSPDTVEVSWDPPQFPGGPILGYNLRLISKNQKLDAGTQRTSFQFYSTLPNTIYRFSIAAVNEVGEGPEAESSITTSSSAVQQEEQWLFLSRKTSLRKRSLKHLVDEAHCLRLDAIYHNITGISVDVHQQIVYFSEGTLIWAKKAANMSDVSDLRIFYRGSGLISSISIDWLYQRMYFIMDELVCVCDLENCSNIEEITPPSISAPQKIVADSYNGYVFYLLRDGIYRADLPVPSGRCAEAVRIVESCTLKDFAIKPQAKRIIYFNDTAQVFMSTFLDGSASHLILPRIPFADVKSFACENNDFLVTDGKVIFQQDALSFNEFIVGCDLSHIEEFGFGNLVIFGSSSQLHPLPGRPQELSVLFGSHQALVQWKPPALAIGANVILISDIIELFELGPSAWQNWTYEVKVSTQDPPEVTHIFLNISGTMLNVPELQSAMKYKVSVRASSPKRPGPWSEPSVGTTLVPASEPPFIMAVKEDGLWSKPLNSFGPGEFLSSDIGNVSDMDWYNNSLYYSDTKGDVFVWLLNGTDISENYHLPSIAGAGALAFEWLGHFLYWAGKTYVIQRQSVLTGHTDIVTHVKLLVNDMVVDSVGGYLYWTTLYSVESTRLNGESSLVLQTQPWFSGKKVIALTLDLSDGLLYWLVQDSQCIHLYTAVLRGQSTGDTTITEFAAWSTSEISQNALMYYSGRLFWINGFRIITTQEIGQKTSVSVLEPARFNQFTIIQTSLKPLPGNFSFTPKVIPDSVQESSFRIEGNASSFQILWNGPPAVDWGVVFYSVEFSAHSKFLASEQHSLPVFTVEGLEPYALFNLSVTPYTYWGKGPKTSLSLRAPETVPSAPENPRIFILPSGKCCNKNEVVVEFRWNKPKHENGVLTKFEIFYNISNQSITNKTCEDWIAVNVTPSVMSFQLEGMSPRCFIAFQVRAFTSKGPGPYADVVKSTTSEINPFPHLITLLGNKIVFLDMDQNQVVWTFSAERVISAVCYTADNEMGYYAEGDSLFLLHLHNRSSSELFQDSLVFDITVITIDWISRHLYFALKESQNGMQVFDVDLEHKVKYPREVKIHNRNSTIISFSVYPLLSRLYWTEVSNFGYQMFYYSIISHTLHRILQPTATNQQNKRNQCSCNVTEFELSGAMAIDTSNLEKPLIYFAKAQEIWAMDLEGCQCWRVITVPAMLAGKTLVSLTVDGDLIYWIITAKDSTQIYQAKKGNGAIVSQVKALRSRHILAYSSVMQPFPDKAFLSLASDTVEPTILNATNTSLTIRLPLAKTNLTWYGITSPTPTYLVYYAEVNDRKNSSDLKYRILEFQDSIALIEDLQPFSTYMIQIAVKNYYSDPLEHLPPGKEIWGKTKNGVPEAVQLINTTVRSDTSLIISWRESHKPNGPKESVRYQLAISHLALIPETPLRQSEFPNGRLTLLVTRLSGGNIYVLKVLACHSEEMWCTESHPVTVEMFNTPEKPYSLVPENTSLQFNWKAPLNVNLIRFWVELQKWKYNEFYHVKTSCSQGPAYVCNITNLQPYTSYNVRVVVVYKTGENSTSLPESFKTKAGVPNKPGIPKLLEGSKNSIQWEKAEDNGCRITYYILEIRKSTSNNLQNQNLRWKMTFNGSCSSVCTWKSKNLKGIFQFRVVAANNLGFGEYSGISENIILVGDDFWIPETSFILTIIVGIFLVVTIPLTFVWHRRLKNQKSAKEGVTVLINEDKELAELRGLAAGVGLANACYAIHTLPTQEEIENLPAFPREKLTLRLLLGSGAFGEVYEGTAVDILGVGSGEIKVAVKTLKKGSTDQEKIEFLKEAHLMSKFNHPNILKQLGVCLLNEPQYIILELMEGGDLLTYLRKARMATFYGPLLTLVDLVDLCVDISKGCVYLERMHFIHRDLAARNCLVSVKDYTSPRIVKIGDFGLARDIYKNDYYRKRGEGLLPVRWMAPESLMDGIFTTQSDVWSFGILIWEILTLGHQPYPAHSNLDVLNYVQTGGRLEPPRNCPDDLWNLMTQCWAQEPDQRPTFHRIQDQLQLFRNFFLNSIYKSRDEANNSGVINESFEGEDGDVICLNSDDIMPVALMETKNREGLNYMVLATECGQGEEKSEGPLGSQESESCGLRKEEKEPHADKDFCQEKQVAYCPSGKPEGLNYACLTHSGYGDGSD
- EXPERIMENTAL_PARAMETERS: at 0.1 µM
- Description: GSK_PKIS: ROS mean inhibition at 0.1 uM [Nanosyn]
OBSERVABLE: inhibition (%)
Kindly answer with a numeric value in %, unit omitted.

>>> result_value("COc1cc(Nc2nccc(-c3cnn4ncccc34)n2)cc(OC)c1")
57

Q: Supply reported inhibition belonging to this compound: COc1cc2ncn(-c3cc(OCc4ccccc4S(C)(=O)=O)c(C#N)s3)c2cc1OC
Result: 27.4

Q: Supply reported inhibition belonging to this compound: COc1cccc(-n2ncc3c(N/N=C/c4ccc(S(C)(=O)=O)cc4)ncnc32)c1
Result: 7.29

Q: Supply reported inhibition belonging to this compound: COC(=O)Nc1nc2cc(Oc3ccc(NC(=O)Nc4cccc(Br)c4)cc3)ccc2[nH]1
Result: 4.26

Q: Supply reported inhibition belonging to this compound: COc1cccc(-n2ncc3c(N/N=C/c4ccc(C)cc4)ncnc32)c1
Result: 14.2

Q: Supply reported inhibition belonging to this compound: C[C@@H](Oc1cc(-n2cnc3ccc(OCC4CCN(C)CC4)cc32)sc1C(N)=O)c1ccccc1C(F)(F)F
Result: 0.2

Q: Supply reported inhibition belonging to this compound: COc1ccc(-c2nn3ncccc3c2-c2ccnc(Nc3cccc(C(F)(F)F)c3)n2)cc1
Result: 2.58

Q: Supply reported inhibition belonging to this compound: COc1ccc2ncnc(Nc3ccc(OCc4ccccc4)cc3)c2c1
Result: 1.06

Q: Supply reported inhibition belonging to this compound: Cc1ccc2c(-c3ccnc(Nc4ccc5c(c4)OCCO5)n3)c(-c3ccc(C(F)(F)F)cc3)nn2n1
Result: 1.22

###

- MEASUREMENT_TARGET: Aurora kinase B (Homo sapiens);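 note: reported percent inhibition is a mean value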
- EXPERIMENTAL_PARAMETERS: at 1 µM
Each record here notes measured inhibition.
Kindly answer with a numeric value in %, unit omitted.

>>> result_value("NS(=O)(=O)c1cccc(-c2cc3ccncc3cc2OCc2ccccc2)c1")
17.9

Q: Supply reported inhibition belonging to this compound: CS(=O)(=O)Nc1cccc(-c2ccc3c(NC(=O)C4CC4)n[nH]c3c2)c1
Result: 3.58

Q: Supply reported inhibition belonging to this compound: O=S(=O)(CCOCc1ccc(-c2ccc3ncnc(Nc4ccc(OCc5cccc(F)c5)c(Cl)c4)c3c2)o1)c1ccccc1
Result: 7.69

Q: Supply reported inhibition belonging to this compound: COc1ccc2ncnc(Nc3ccc(OCc4ccccc4)cc3)c2c1
Result: 22

Q: Supply reported inhibition belonging to this compound: N#Cc1c(NC(=O)c2ccccc2F)sc2c1CCCC2
Result: 0.26

Q: Supply reported inhibition belonging to this compound: CCCN1CCCC(c2ccc(Nc3nc(Nc4cc(F)ccc4C(N)=O)c4cc[nH]c4n3)c(OC)c2)C1 (stereo not given)
Result: 3.45

Q: Supply reported inhibition belonging to this compound: Cc1cc(O)cc(C)c1/C=C/c1cncc(C(=O)N(C)C)c1
Result: 14.7

Q: Supply reported inhibition belonging to this compound: Cc1ccc(NC(=O)CC2CC2)cc1-c1ccc(C(=O)NCC2CC2)cc1
Result: 6.1

Q: Supply reported inhibition belonging to this compound: Nc1nccc(-c2c(-c3ccc(F)cc3)nn3cc(C(F)(F)F)ccc23)n1
Result: 0.7

Q: Supply reported inhibition belonging to this compound: Cc1ccc2c(-c3ccnc(Nc4cccc(C(F)(F)F)c4)n3)c(-c3ccccc3)nn2n1
Result: 7.6

Q: Supply reported inhibition belonging to this compound: COc1ccc(-c2nn3ncccc3c2-c2ccnc(Nc3cccc(C(F)(F)F)c3)n2)cc1
Result: 5.57

Q: Supply reported inhibition belonging to this compound: COC(=O)Nc1nc2cc(Oc3ccc(NC(=O)Nc4cccc(Br)c4)cc3)ccc2[nH]1
Result: 21

Q: Supply reported inhibition belonging to this compound: CN(C)C(=O)O[C@H]1CN[C@H](C#Cc2cc3ncnc(Nc4ccc(OCc5cccc(F)c5)c(Cl)c4)c3s2)C1
Result: 7.39

Q: Supply reported inhibition belonging to this compound: O=C(Nc1ccc(Oc2ccc3[nH]c(NC(=O)c4ccco4)nc3c2)cc1)Nc1cc(C(F)(F)F)ccc1F
Result: 38.8

Q: Supply reported inhibition belonging to this compound: COc1cc(Nc2nccc(-c3cnn4ncccc34)n2)cc(OC)c1
Result: 71

Q: Supply reported inhibition belonging to this compound: CCn1c(-c2nonc2N)nc2c(C#CC(C)(C)O)nc(OCCNC)cc21
Result: 5.49

Q: Supply reported inhibition belonging to this compound: C[C@@H](Oc1cc(-n2cnc3ccc(OC[C@@H](O)CO)cc32)sc1C(N)=O)c1ccccc1Cl
Result: 1.36

Q: Supply reported inhibition belonging to this compound: CC(C)c1ccc(Nc2nccc(-c3cnn4ncccc34)n2)cc1
Result: 43.1

Q: Supply reported inhibition belonging to this compound: O=C1Nc2ccc(-c3cccnc3)cc2C1=Cc1cc(Br)c(O)c(Br)c1
Result: 16

Q: Supply reported inhibition belonging to this compound: CN(C)CCCn1c(-c2nonc2N)nc2cnccc21
Result: 4.46

###

- MEASUREMENT_TARGET: Proto-oncogene tyrosine-protein kinase ROS (Homo sapiens)
- EXPERIMENTAL_PARAMETERS: at 0.1 µM
OBSERVABLE: inhibition (%)
Kindly answer with a numeric value in %, unit omitted.

>>> result_value("FC(F)(F)c1ccc(-c2nn3ncccc3c2-c2ccnc(Nc3ccc4c(c3)OCCO4)n2)cc1")
7.87
>>> result_value("CCn1c(-c2nonc2N)nc2c(C#CC(C)(C)O)nc(OCCNC)cc21")
6.88

Q: Supply reported inhibition belonging to this compound: CN(C)C(=O)O[C@@H]1CN[C@@H](C#Cc2cc3ncnc(Nc4ccc(OCc5cccc(F)c5)c(Cl)c4)c3s2)C1
Result: 1.04

Q: Supply reported inhibition belonging to this compound: C[C@@H](Oc1cc(-n2cnc3ccc(OC[C@@H](O)CO)cc32)sc1C(N)=O)c1ccccc1Cl
Result: 1.32

Q: Supply reported inhibition belonging to this compound: Cc1cc(Cl)cc2c1NC(=O)C2=NNc1ccc(S(N)(=O)=O)cc1
Result: 2.22

Q: Supply reported inhibition belonging to this compound: Cc1ccc2c(c1)/C(=N/Nc1ccc(S(N)(=O)=O)cc1)C(=O)N2
Result: 2.42

###

- MEASUREMENT_TARGET: Serine/threonine-protein kinase BRSK1 (Homo sapiens);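 note: each value is a mean percent inhibition of BRSK1 kinase activity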
- EXPERIMENTAL_PARAMETERS: at 1 µM
OBSERVABLE: inhibition (%)
Kindly answer with a numeric value in %, unit omitted.

For orientation, consider the following solved cases.
>>> result_value("NS(=O)(=O)c1cccc(-c2cc3ccncc3cc2OCc2ccccc2)c1")
3.45
>>> result_value("COc1cccc(-n2ncc3c(N/N=C/c4ccc(S(C)(=O)=O)cc4)ncnc32)c1")
52.5
>>> result_value("N#Cc1cccc(Nc2nccc(-c3cnn4ncccc34)n2)c1")
7.19
>>> result_value("CS(=O)(=O)Nc1cccc(-c2ccc3c(NC(=O)C4CC4)n[nH]c3c2)c1")
18.7
>>> result_value("Cc1cc(O)cc(C)c1/C=C/c1cncc(C(=O)N(C)C)c1")
8.54
>>> result_value("Cc1ccc(O)cc1Nc1ccnc2ccc(S(C)(=O)=O)cc12")
1.8

Q: Supply reported inhibition belonging to this compound: Nc1ccc(C#Cc2cncnc2Nc2ccc(OCc3cccc(F)c3)c(Cl)c2)cc1
Result: 0.9

Q: Supply reported inhibition belonging to this compound: C[C@@H](Oc1cc(-n2cnc3ccc(OC[C@@H](O)CO)cc32)sc1C(N)=O)c1ccccc1Cl
Result: 55.8

Q: Supply reported inhibition belonging to this compound: CCS(=O)(=O)c1ccc(OC)c(Nc2nccc(N(C)c3ccc4c(C)n[nH]c4c3)n2)c1
Result: 4.69

Q: Supply reported inhibition belonging to this compound: COc1cc2ncnc(Nc3ccc4c(cnn4Cc4ccccc4)c3)c2cc1OC
Result: 1.11

Q: Supply reported inhibition belonging to this compound: Cc1ccc(C(=O)NC2CC2)cc1-c1ccc2[nH]ncc2c1
Result: 3.03

Q: Supply reported inhibition belonging to this compound: CN(C)CCCn1c(-c2nonc2N)nc2cnccc21
Result: 0.57

Q: Supply reported inhibition belonging to this compound: CCCN1CCCC(c2ccc(Nc3nc(Nc4cc(F)ccc4C(N)=O)c4cc[nH]c4n3)c(OC)c2)C1 (stereo not drawn)
Result: 1.82

Q: Supply reported inhibition belonging to this compound: COc1ccc(-c2nn3ncccc3c2-c2ccnc(Nc3cccc(C(F)(F)F)c3)n2)cc1
Result: 1.65

Q: Supply reported inhibition belonging to this compound: COC(=O)Nc1nc2cc(Oc3ccc(NC(=O)Nc4cccc(Br)c4)cc3)ccc2[nH]1
Result: 0.86

Q: Supply reported inhibition belonging to this compound: Nc1nccc(-c2c(-c3ccc(F)cc3)ncn2CCCN2CCOCC2)n1
Result: -1.18

Q: Supply reported inhibition belonging to this compound: O=C1Nc2ccccc2/C1=C/Nc1ccc2[nH]c(=O)[nH]c2c1
Result: 15.7

Q: Supply reported inhibition belonging to this compound: c1ccc(Nc2ncc(-c3ccccc3)o2)cc1
Result: 2.07

Q: Supply reported inhibition belonging to this compound: CCOc1nccc2c1nc(-c1nonc1N)n2CC
Result: 14.7

Q: Supply reported inhibition belonging to this compound: O=C(Nc1ccc(Oc2ccc3[nH]c(NC(=O)c4ccco4)nc3c2)cc1)Nc1cc(C(F)(F)F)ccc1F
Result: -0.05

Q: Supply reported inhibition belonging to this compound: COc1cc(Nc2nccc(-c3cnn4ncccc34)n2)cc(OC)c1
Result: 5.11

Q: Supply reported inhibition belonging to this compound: CCS(=O)(=O)c1ccc(OC)c(Nc2ncc(-c3cccc(OC)c3)o2)c1
Result: -0.15

Q: Supply reported inhibition belonging to this compound: Cc1ccc(Nc2ccnc(Nc3cccc(C(N)=O)c3)n2)cc1O
Result: 6.23

Q: Supply reported inhibition belonging to this compound: CC(C)c1ccc2c(c1)NC(=O)/C2=N/Nc1ccc(S(N)(=O)=O)cc1
Result: 1.21

Q: Supply reported inhibition belonging to this compound: COc1ccc2ncnc(Nc3ccc(OCc4ccccc4)cc3)c2c1
Result: 0.79
